What Percent Effect was measured for each of the following?
molecular target: Tyrosyl-tRNA synthetase, putative (Trypanosoma cruzi (strain CL Brener)) (UniProt Q4DSP6); assay: Trypanosoma cruzi tyrosyl tRNA synthetase (TcYRS) SOP; type: functional; set-up: scale not given: direction of the effect not stated beside the values; settings: 30 µM
Sequence (Q4DSP6 as listed by the source): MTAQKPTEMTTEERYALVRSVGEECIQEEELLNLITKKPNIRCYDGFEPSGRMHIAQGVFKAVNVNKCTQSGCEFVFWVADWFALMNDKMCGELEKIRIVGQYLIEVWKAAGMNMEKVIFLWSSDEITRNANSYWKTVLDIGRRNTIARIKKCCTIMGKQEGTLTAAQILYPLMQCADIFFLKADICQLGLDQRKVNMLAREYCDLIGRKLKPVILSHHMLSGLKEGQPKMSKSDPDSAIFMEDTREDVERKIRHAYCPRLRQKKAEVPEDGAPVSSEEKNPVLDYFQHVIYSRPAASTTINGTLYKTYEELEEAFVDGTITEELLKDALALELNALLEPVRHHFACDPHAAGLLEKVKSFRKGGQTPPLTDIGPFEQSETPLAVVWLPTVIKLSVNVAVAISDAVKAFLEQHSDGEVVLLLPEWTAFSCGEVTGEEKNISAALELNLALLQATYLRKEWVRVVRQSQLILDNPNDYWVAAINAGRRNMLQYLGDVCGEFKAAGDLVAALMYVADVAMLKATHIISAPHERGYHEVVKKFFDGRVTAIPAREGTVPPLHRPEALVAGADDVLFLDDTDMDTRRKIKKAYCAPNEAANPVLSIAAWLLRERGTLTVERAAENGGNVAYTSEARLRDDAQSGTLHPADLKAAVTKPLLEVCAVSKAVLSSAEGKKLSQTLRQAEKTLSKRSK
Give bare numbers, in %.

For each entry beneath this line, provide reported Percent Effect.
1. Cc1nn(C)c(N(C)C)c1CNCCNS(C)(=O)=O
2. Cc1nn(C)c(N(C)C)c1CNCCCN(C)S(C)(=O)=O

Response:
1. 20.5
2. 18.1

Could I get Percent Effect for every one of these entries?
1. CN(C)c1ccc(C(=O)N2CCN(Cc3cscn3)CC2)cc1F
2. Fc1ccc(-c2nnc(CN3CCn4c(nnc4C4CC4)C3)o2)cc1
3. CCNC(=O)[C@@H]1C[C@@H](NC(=O)c2cccnc2O)CN1Cc1ccsc1

Response:
1: 23.5; 2: 15.4; 3: 21.9

Required: Percent Effect, one value per compound below.
1. CC(=O)N1C[C@@H](c2ccsc2)[C@@H]2CN(Cc3ccccc3)CC[C@@H]21
2. CN1CCCn2c(nc(CNC(=O)c3ccsc3)cc2=O)C1
3. COc1ccc(CC(=O)N2C[C@@H]3COC[C@]3(CN(C)C)C2)cc1
4. CNC(=O)COc1ccccc1CNC1CCc2ncnn2C1 (centres undefined)

Response:
7.5
5.13
-43.6
20.5

Would you be so kind as to report Percent Effect for each listed record?
1. COCc1nc(C(=O)N2CCCC(n3cccn3)C2)cs1 (centres undefined)
2. Cc1ccc(Cl)cc1N1CCC(CNC(=O)CC(F)(F)F)C1 (centres undefined)
3. CC(C)C(=O)N1CCC2(CCCN(CCOc3ccccc3)C2)C1 (centres undefined)
4. Cc1ccccc1-c1cncc(C2CCN(C(C)C)CC2)n1
5. NC(=O)C1CCC(NC(=O)COc2ccc(Cl)c(Cl)c2)CC1 (centres undefined)
6. Cc1ccc(C(=O)NCCNc2ncccc2C#N)c(=O)[nH]1

Response:
16.5
-3.61
10
17.5
23.5
7.06

Quick one: give me Percent Effect for each item below, same order please.
1. CN(C)C(=O)CCC(=O)NCc1cccnc1-n1cnc2ccccc21
2. CC(C)N1CCO[C@H]2CN(C(=O)c3ccoc3)C[C@H]21
3. Clc1ccccc1-c1nc(CNC2CCc3ncnn3C2)cs1 (centres undefined)
4. Cn1nc2c(cc1=O)CN(Cc1nc(C(C)(C)C)no1)CC2

Response:
[-2.44, 10.3, 1.21, 2.56]

Below are 4 compounds. Give each one its Percent Effect.
1. Cc1cnn(CC2CN(CC(=O)N(C)Cc3cccs3)CCO2)c1 (centres undefined)
2. Cc1ccc(OCC(O)CN2CCC(Cn3cccn3)CC2)cc1 (centres undefined)
3. CC(C)CNc1nc(C(=O)/N=c2\[nH]nc(C(C)(C)C)s2)cs1
4. CC(C)n1ccnc1CN1CCCN(C(=O)c2cc(Cl)c[nH]2)CC1

Response:
[2.56, 23.5, 17.1, 18.1]

Prompt: Endpoint output: Percent Effect of COc1cccc(CN2CCCC3(CCN(C(=O)[C@H]4CCCO4)C3)C2)c1 (some centres undefined) . Value?
Response: 15

* * *

molecular target: Sialic acid-binding Ig-like lectin 9 (Homo sapiens) (UniProt Q9Y336); assay: Hs-Siglec9 ALPHAscreen SOP 20170721; parameters: scale not given: direction of the effect not stated beside the values; details: 10 µM
Sequence (Q9Y336 whole entry): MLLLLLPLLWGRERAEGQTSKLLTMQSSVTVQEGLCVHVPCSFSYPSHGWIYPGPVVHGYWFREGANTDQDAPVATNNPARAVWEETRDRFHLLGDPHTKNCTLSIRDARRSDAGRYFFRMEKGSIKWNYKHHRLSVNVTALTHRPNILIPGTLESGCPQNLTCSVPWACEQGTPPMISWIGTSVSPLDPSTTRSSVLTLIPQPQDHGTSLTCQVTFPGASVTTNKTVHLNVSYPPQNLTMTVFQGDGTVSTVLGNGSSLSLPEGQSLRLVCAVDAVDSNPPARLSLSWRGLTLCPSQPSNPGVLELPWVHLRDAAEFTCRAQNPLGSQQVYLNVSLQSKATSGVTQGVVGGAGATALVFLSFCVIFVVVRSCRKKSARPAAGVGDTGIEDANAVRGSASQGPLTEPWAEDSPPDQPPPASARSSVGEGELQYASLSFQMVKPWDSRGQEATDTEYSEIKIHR
TEST_READOUT: Percent Effect (%)
Answers are plain numbers, in %.

Give Percent Effect for each of the items listed below.
1. Cc1noc(C2CCN(C(=O)c3ccc(NC4CC4)nc3)CC2)n1
2. CNC(=O)c1ccc(C2CN(C(=O)COC)CCO2)nc1 (centres undefined)
3. COc1cccc2c1OCC(C(=O)N1CCC(N3CCOC3=O)CC1)C2 (centres undefined)
4. CC(C)C(=O)N1CCC2(CCCN(CCOc3ccccc3)C2)C1 (centres undefined)
5. CCn1nc2c(cc1=O)CN(Cc1nc(-c3ccsc3)no1)CC2
6. CCc1cc(O)nc(C2CCCN2C(=O)c2cc(C)no2)n1 (centres undefined)
7. CN(C)CC(=O)N1CCC2(CC(=O)N(c3cccc(C#N)c3)C2)C1 (centres undefined)

Response:
1: -12.9; 2: 3.63; 3: 15.6; 4: -1.94; 5: 3.78; 6: -12.2; 7: -3.56

Below is a list of compounds. For each, state its recorded Percent Effect.
1. CC(C)NC(=O)N1CCC2(CC(=O)N(c3cccc(C#N)c3)C2)C1 (centres undefined)
2. O=C(c1cc(C2CC2)[nH]n1)N1CCCC(n2cncn2)C1 (centres undefined)
3. Cc1cc(NC(=O)C(C)N2CCCN(c3nccs3)CC2)on1 (centres undefined)
4. COCCCN1CC2(CCCCN2C(=O)c2ccsc2)CC1=O (centres undefined)
5. CCOc1ncccc1NC(=O)NC1CCCN(c2ncccn2)C1 (centres undefined)
6. COc1cccc(CNc2cnn(C)c(=O)c2Cl)c1

Response:
0.438
-12.5
6.57
1.99
1.83
3.58

Origin of the recorded values: ChEMBL document CHEMBL3988442
